molecular target: the molecule itself; assay: sedimentation equilibrium AUC, self-association (tetramer), 25 C
No end group written: not given here.
Measure Name: Kd (pM)
Numbers only, in pM.

GPSQPTAPGDDAVPEDLIRFYDNLQQYLNVVTRHRY-NH2 (Synthetic aPP variant; entries are for its self-association (tetramer); also called aPP^Y7AP13W14P) [aPP^Y7AP13VV14P]	0.75
GPSQPEAPGDDAPVEDLIRFYDNLQQYLNVVTRHRY-NH2 (entries are for its self-association (tetramer); also called aPP^Y7AAT6E) [aPP^Y7AT6E]	0.2
GPSQPTYPGDDAPVEDLIRAYDNLQQYLNVVTRHRY-NH2 (Synthetic aPP variant; entries are for its self-association (tetramer)) [aPP^F20A]	76
GPSQPTAPGDDAPVEDLIRFYDNLQQYLNVVTRHRY-NH2 (Synthetic aPP variant; entries are for its self-association (tetramer)) [aPP^Y7A]	3.9

Attention now shifts to the item below.
The value of Kd measured for the protein GPSQPTAPGDDAPVEDLIRFYDNLRQYLNVVTRHRY-NH2 (Synthetic aPP variant; entries are for its self-association (tetramer)) [aPP^Y7AQ25R] turned out to be 0.18
